- TARGET UNDER TEST: AR protein (Homo sapiens, UniProt P10275)
- Construct: host or cells: VCaP
- Sequence (P10275 1-920): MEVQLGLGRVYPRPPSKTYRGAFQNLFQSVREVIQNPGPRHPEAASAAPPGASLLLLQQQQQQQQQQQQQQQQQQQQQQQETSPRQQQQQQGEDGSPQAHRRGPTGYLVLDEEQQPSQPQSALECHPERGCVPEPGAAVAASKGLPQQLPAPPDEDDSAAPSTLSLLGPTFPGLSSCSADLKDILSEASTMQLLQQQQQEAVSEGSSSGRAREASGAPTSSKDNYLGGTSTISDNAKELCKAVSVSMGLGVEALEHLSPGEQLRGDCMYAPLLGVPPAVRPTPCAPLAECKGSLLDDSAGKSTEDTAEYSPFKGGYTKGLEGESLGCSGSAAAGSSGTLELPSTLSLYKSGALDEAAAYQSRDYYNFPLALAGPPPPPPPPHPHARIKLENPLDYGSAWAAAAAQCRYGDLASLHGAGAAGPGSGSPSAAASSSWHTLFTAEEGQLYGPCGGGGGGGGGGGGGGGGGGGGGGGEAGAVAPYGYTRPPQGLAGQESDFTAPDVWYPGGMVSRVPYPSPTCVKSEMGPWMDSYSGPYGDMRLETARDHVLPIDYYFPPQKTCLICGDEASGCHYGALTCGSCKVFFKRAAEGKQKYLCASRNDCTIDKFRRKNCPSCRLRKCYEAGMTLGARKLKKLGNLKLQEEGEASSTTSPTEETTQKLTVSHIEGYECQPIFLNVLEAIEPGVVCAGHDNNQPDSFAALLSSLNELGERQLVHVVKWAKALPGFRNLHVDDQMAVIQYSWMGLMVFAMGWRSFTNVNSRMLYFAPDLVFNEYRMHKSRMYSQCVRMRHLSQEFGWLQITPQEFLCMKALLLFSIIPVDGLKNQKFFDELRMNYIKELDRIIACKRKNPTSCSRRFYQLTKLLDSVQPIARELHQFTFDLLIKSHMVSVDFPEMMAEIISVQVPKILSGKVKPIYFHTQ
- ASSAY NAME: AR protein degradation in VCaP cells (Western blot)
- Assay type: cell-based
- SETTINGS: 0.5 nM, 8h
READOUT NAME: Degradation rate of AR protein in VCaP cells (%)
Could you give me the number in %? Just the number is fine.

• COc1cc(O[C@H]2C(C)(C)[C@H](NC(=O)c3ccc(N4CCC(CN5CCC6(CCc7cc(C(=O)N[C@H]8CCC(=O)NC8=O)c(F)cc7O6)CC5)CC4)nc3)C2(C)C)ccc1C#N = 56
• COc1cc(O[C@H]2C(C)(C)[C@H](NC(=O)c3ccc(N4CCC(C)(CN5CCC6(CC5)COc5c6ccc(C(=O)N[C@H]6CCC(=O)NC6=O)c5F)CC4)cc3)C2(C)C)ccc1C#N = 18

Please examine the following record next.
// query Degradation rate of AR protein in VCaP cells value for entry COc1cc(O[C@H]2C(C)(C)[C@H](NC(=O)c3ccc(N4CCC5(CC4)CC(N4CCC6(CC4)COc4cc7c(cc46)n(C)c(=O)n7C4CCC(=O)NC4=O)C5)nn3)C2(C)C)ccc1C#N (relative stereo)
63
